- System Tested: USP13 (Homo sapiens)
- Construct: ELISA for USP13 (MyBioSource, Cat # MBS9335287, San Diego, CA, USA); endogenous in cells
- Sequence (Q92995 whole entry): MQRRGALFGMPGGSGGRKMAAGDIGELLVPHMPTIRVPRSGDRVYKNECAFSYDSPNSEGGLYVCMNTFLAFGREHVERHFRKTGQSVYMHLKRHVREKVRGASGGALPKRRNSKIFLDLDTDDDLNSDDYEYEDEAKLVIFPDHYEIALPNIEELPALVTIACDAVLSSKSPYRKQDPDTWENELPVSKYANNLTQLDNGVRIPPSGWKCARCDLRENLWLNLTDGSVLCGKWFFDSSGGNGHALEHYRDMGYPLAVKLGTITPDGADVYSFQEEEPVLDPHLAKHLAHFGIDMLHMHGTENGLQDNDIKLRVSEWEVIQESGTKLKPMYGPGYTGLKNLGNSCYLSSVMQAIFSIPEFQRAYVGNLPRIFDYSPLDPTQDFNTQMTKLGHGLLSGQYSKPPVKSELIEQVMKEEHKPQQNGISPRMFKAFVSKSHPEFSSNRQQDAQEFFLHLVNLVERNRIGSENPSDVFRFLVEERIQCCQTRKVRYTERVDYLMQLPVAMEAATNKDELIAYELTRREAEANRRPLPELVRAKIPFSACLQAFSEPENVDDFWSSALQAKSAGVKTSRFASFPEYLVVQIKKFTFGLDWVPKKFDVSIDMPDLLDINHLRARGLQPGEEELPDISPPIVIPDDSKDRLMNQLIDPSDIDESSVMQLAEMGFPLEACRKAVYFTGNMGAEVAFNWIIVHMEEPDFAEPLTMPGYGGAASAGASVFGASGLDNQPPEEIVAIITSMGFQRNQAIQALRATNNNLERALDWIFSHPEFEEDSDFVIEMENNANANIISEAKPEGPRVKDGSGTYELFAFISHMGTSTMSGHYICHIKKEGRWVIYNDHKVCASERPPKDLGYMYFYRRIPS
- Assay Remarks: USP13 activity via functional ELISA in alpha-synuclein transfected SH-SY5Y cells
- Experimental Parameters: SH-SY5Y cells transfected with human alpha-synuclein, 5 h, read-out: Estimated IC50 to USP13
Assay Metric: IC50 (nM)

{"Compound": "COC(=O)[C@H](Cc1ccccc1)Nc1c([N+](=O)[O-])c(=O)oc2ccccc12 [CL3-512]", "System Tested": "USP13 (Homo sapiens)", "Result Value": 0.27}
{"Compound": "COC(=O)[C@H](Cc1ccc(O)cc1)Nc1c([N+](=O)[O-])c(=O)oc2ccccc12 [CL3-514]", "System Tested": "USP13 (Homo sapiens)", "Result Value": 0.61}
{"Compound": "Fc1ccc2nccc(Nc3ccccc3)c2c1 [BK50118-B, 6-fluoro-N-phenylquinolin-4-amine]", "System Tested": "USP13 (Homo sapiens)", "Result Value": 2.13}
{"Compound": "Fc1ccc2nccc(OCc3ccccc3)c2c1 [BK50118-C, 4-benzyloxy-6-fluoroquinoline]", "System Tested": "USP13 (Homo sapiens)", "Result Value": 0.42}

A = Fc1ccc2nccc(NCc3ccccc3)c2c1 [CL3-499, N-benzyl-6-fluoroquinolin-4-amine]
B = c1ccc(Nc2ccnc3ccsc23)cc1 [BK50118-A, N-phenylthieno[3,2-b]pyridin-7-amine]
Problem: A or B : whose IC50 is greater? Lab log: write the label of the selected item as the result.
Result: A
(A: 0.29 nM, B: 0.11 nM)
